Assay: Tmax in Sprague-Dawley rat at 20 mg/kg, po
Type: ADME, organism-based
Design: dose 20 mg/kg, route oral
Conditions: in vivo
# Tmax per entry
Report the figure in h without appending any unit label.

- compound: "COc1cc([N+](=O)[O-])ccc1C(=O)NC1N=C(c2ccccc2)c2ccccc2NC1=O (stereo not drawn)"
  Tmax / h: 3
- compound: "COc1ccc(F)cc1C(=O)NC1N=C(c2ccccc2)c2ccccc2NC1=O (stereo not drawn)"
  Tmax / h: 3.33

## Task Look up Tmax of COc1cc(Cl)ccc1C(=O)NC1N=C(c2ccccc2)c2ccccc2NC1=O (stereo not drawn) and report it.
## Result 1

###

Assay: Cmax in Sprague-Dawley rat at 25 mg/kg, po
Format: ADME, organism-based
Parameters: dose 25 mg/kg, route oral
Conditions: in vivo
property.measured: Cmax (ng/mL)
Report the figure in ng/mL without appending any unit label.

## Task Look up Cmax of CC(=O)NC1N=C(c2ccccc2)c2ccccc2NC1=O (stereo unspecified) and report it.
## Result 7930

###

Test: Tmax in Sprague-Dawley rat at 25 mg/kg, po
Type: ADME, organism-based
Set-up: dose 25 mg/kg, route oral
Conditions: in vivo
property.measured: Tmax
Don't forget the unit after the number, please.

## Task Look up Tmax of CC(=O)NC1N=C(c2ccccc2)c2ccccc2NC1=O (stereo unspecified) and report it.
## Result 1.5 h

###

Test system: Respiratory syncytial virus
Test: Antiviral activity against RSV A2 in Hep2 cells by plaque assay
Format: functional, organism-based
Settings: human respiratory syncytial virus, A2, HEp-2
property.measured: pIC50
Here pIC50 is given on a logarithmic scale as minus log10 of the concentration in mol/L.

## Task Look up pIC50 of O=C(Nc1ccccc1F)NC1N=C(c2ccccc2)c2ccccc2NC1=O (stereo unspecified) and report it.
## Result 5.55

###

Test system: HEp-2
Experiment: Cytotoxicity against Hep2 cell at 50 uM
Format: functional, cell-based
Conditions: Homo sapiens
property.measured: Activity

- compound: "COc1cc(Cl)ccc1C(=O)NC1N=C(c2ccccc2)c2ccccc2NC1=O (configuration not stated)"
  test.target: "HEp-2"
  Activity: "Not toxic"
- compound: "COc1cccc(C2=NC(NC(=O)c3ccccc3OC)C(=O)Nc3ccccc32)c1 (configuration not stated)"
  test.target: "HEp-2"
  Activity: "Not toxic"
- compound: "COc1ccccc1CNC1N=C(c2ccccc2)c2ccccc2NC1=O (configuration not stated)"
  test.target: "HEp-2"
  Activity: "Not toxic"
- compound: "O=C(Nc1ccccc1F)NC1N=C(C2CCCCC2)c2ccccc2NC1=O (configuration not stated)"
  test.target: "HEp-2"
  Activity: "Not toxic"
- compound: "CN1CCN(C(=O)NC2N=C(c3ccccc3)c3ccccc3NC2=O)CC1 (configuration not stated)"
  test.target: "HEp-2"
  Activity: "Not toxic"

## Task Find Activity for COc1ccccc1C(=O)NC1N=C(c2ccc(C(F)(F)F)cc2)c2ccccc2NC1=O (configuration not stated) on HEp-2 and write it down.
## Result Not toxic

## Task Find Activity for O=C(NC1N=C(c2ccccc2F)c2cc(Cl)ccc2NC1=O)c1ccco1 (configuration not stated) on HEp-2 and write it down.
## Result Not toxic

## Task Find Activity for CC(C)C(=O)NC1N=C(c2ccccc2)c2ccccc2NC1=O (configuration not stated) on HEp-2 and write it down.
## Result Not toxic

## Task Find Activity for COc1cc([N+](=O)[O-])ccc1C(=O)NC1N=C(c2ccccc2)c2ccccc2N(C)C1=O (configuration not stated) on HEp-2 and write it down.
## Result Not toxic

## Task Find Activity for COc1ccccc1C(=O)NC1N=C(c2ccccc2)c2ccccc2NC1=O (configuration not stated) on HEp-2 and write it down.
## Result Not toxic

## Task Find Activity for COc1ccc(C(=O)NC2N=C(c3ccccc3)c3ccccc3NC2=O)cc1 (configuration not stated) on HEp-2 and write it down.
## Result Not toxic

## Task Find Activity for CCN(CC)C(=O)NC1N=C(c2ccccc2)c2ccccc2NC1=O (configuration not stated) on HEp-2 and write it down.
## Result Not toxic

## Task Find Activity for CCN(CC)C1N=C(c2ccccc2)c2ccccc2NC1=O (configuration not stated) on HEp-2 and write it down.
## Result Not toxic

## Task Find Activity for O=C(NC1N=C(c2ccccc2)c2ccccc2NC1=O)c1cccc([N+](=O)[O-])c1 (configuration not stated) on HEp-2 and write it down.
## Result Not toxic

## Task Find Activity for COc1ccccc1C(=O)NC1N=C(c2ccccc2F)c2cc(Cl)ccc2NC1=O (configuration not stated) on HEp-2 and write it down.
## Result Not toxic

## Task Find Activity for COc1cc([N+](=O)[O-])ccc1C(=O)N(C)C1N=C(c2ccccc2)c2ccccc2NC1=O (configuration not stated) on HEp-2 and write it down.
## Result Not toxic
